Numbers sourced from paper PMC2974656.

System: MT4-LTR-EGFP-IIIB HIV-1 producing cells
Test: in vitro
Assay type: cell-based
Conditions: read-out: CC50 on virus producing cells in the absence of DRV; one representative experiment (Fig. 3C), 4 days, 4 parameter fit
recorded_endpoint: CC50 (nM)
One number for each entry, in nM.

What value of CC50 has been reported for the following compound? Cc1cc(S(N)(=O)=O)ccc1NC(=O)COc1ccc(Cl)cc1C(=O)c1cc(Cl)cc(C#N)c1
350

* * *

Would you mind telling me the reported CC50 at 4 days of each entry?
Test: Cytotoxicity on uninfected control cells, EGFP fluorescence per well
Assay type: cell-based
Conditions: human, MT4-CMV-EGFP control cells (uninfected); 4 days; mean ± SD; tested up to 10 μM; read-out: Cytotoxicity on MT4-CMV-EGFP control cells CC50

// known answers, use as guide
>>> reported_value("Cc1ccnc2c1NC(=O)c1cccnc1N2C1CC1")
"> 10 µM"
>>> reported_value("O=C1Nc2ccc(Cl)cc2[C@@](C#CC2CC2)(C(F)(F)F)O1")
"> 10 µM"
>>> reported_value("Cc1cc(C#N)cc(C)c1Oc1nc(Nc2ccc(C#N)cc2)nc(N)c1Br")
"> 10 µM"

Next molecule, please.
Dear colleague, I am looking for the recorded CC50 at 4 days of the following molecule: Cc1cc(C)c(Nc2ccnc(Nc3ccc(C#N)cc3)n2)c(C)c1
3.02 µM

* * *

Target: RT heterodimer (p66/p51) (Human immunodeficiency virus type 1 group M subtype B)
Construct: the bait protein (p66) was fused to the C-terminus of a chimeric receptor; expressed in transfected cells; host or cells: mammalian cells
Test: cell-based
Type: cell-based, HIV-1
recorded_endpoint: EC50 (nM)
Answers are plain numbers, in nM.

Need EC50 for each of these compounds.
1. Cc1cc(C#N)cc(C)c1Oc1nc(Nc2ccc(C#N)cc2)nc(N)c1Br [ETV, etravirine]
2. CCc1nn(CCO)c(CC)c1Oc1cc(C#N)cc(C#N)c1 [UK-453061]

[270, 150]
